Reference source: PubChem BioAssay

MEASURED_ON: Voltage-gated potassium channel subunit beta-2 (Rattus norvegicus)
TEST_NAME: enhancers of rat Kvbeta2 NADPH turnover – biochemical, NADPH fluorescence, primary screen (AID 623);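 also: fluorescence intensity change per second fitted from 20 to 320 s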
PARTICULARS: Recombinant KvBeta, NADPH fluorescence decrease slope, 10 min; at 10 µM; active compounds read low
Active and inactive are the calls of the source.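 The calls were made as follows: active = NADPH fluorescence slope more negative than the mean of all samples by about 3 SD, 99.7% confidence; inactive = the rest.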
I'd appreciate it if you could supply NADPH fluorescence slope values for the items below.

{"columns": ["COMPOUND", "NADPH fluorescence slope"],
 "data": [
  ["Cc1cc(NC(=O)C23CCC(C)(c4nc5cc(Cl)c(Cl)cc5nc42)C3(C)C)no1 (centres undefined)", "-4.4e-05 (inactive)"],
  ["CC1=C(C(=O)OC(C)C)C(c2cccc(F)c2)n2ncnc2N1 (centres undefined)", "1.6e-05 (inactive)"],
  ["CCc1nnc(NC(=O)c2ccc(S(=O)(=O)NCC(C)C)cc2)s1", "-3.9e-05 (inactive)"]
]}

For every record below, what is its NADPH fluorescence slope?
1. CCOc1ccccc1C(=O)NCCCn1ccnc1
2. O=C(NCC1CCCO1)c1ccc(N2CCCCC2)nc1 (centres undefined)
3. Cn1cnnc1Sc1nc2c(c(=O)n(C)c(=O)n2C)n1Cc1ccccc1Cl
4. COc1cc(=O)[nH]c(SCc2c(F)c(F)c(F)c(F)c2F)n1
5. CC(C)C(=O)Nc1cccc(NC(=O)c2cccnc2)c1
6. CCOC(=O)c1ccc(NC(=O)CSc2ncccn2)cc1

Return:
-6.1e-05 (inactive)
2.7e-06 (inactive)
-3.9e-05 (inactive)
-4e-05 (inactive)
7.6e-06 (inactive)
-0.000128 (inactive)

For every record below, what is its NADPH fluorescence slope?
1. O=C(CS(=O)(=O)c1cn(Cc2ccc(F)cc2)c2ccccc12)N1CCCCC1
2. Clc1ccc(Cn2ncc3c(NCc4cccnc4)ncnc32)cc1
3. Cc1ccc2nc(C3CCN(CC(=O)N4CCCCCC4)CC3)[nH]c2c1
4. COc1oc(-c2ccccc2)nc1C(F)(F)F
5. O=C(CCCSc1nc2ccccc2s1)NC1=NCCS1
6. CCS(=O)(=O)c1ccc(S(=O)(=O)CC)s1
7. CC(=O)OCC(=O)c1ccc2ccn(C(C)=O)c2c1
8. Cc1c(C)c2ccc(OC3CCCCC3=O)cc2oc1=O (centres undefined)

Return:
["-6.4e-05 (inactive)", "-0.000128 (inactive)", "-5.8e-05 (inactive)", "-3.2e-05 (inactive)", "-1.5e-05 (inactive)", "-4.4e-05 (inactive)", "-1.1e-05 (inactive)", "-2e-05 (inactive)"]

For every record below, what is its NADPH fluorescence slope?
1. Cc1ccc2oc(=O)c3cnn(CC(=O)N4CCCCC4C)c3c2c1 (centres undefined)
2. O=C(CCNS(=O)(=O)c1ccc(Br)s1)N1CCCCC1
3. COc1ccccc1NC(=O)N(Cc1ccco1)Cc1cc2c(C)ccc(C)c2[nH]c1=O

Return:
1. -1.6e-05 (inactive)
2. -3.4e-05 (inactive)
3. -4.7e-05 (inactive)

* * *

TEST_NAME: endothelial E-selectin expression blockers – imaging, HUVEC, immunofluorescence, MLSMR starter and 10KST1 sets, primary screen (AID 487);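 also: signal is fraction of cell area covered by stained E-selectin grains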
PARTICULARS: HUVEC TNFalpha-induced E-selectin immunofluorescence imaging, at 2 µM; active compounds read high
Give criterion met when the value for inhibition is at least -70%. Give criterion not met when it is less.

Use the examples below as a reference point.
{"columns": ["COMPOUND", "DISCRETE_LABEL"],
 "data": [
  ["COC(=O)CN1C(=O)C(O)(CC(=O)c2ccc(C)cc2)c2cc(Br)ccc21 (configuration not stated)", "criterion met"],
  ["CN(C)C(=O)COc1ccc2cc(-c3ccccc3)c(=O)oc2c1", "criterion not met"],
  ["CC(C)(C)OC(=O)N1CCN(c2ccc(NC(=O)c3cc4ccccc4oc3=O)cc2)CC1", "criterion met"],
  ["Cc1ccc(C)c(N2CCN(Cc3nnnn3C3CCCCC3)CC2)c1", "criterion met"],
  ["Cc1ccc(S(=O)(=O)N2CCN(C(=O)CSc3nnnn3C)C2)cc1", "criterion not met"],
  ["CCOc1ccccc1N1CCN(C(=O)c2ccncc2)CC1", "criterion met"],
  ["CCCCOC(=O)Nc1nccs1", "criterion met"],
  ["Cc1cccc(C)c1OCc1nnc2c3cnn(C)c3ncn12", "criterion not met"],
  ["Cc1nnc(NC(=O)CCC(=O)N2CCC(C)CC2)s1", "criterion not met"]
]}

Attention now shifts to the item below.
Enquiry: // inclusive: inhibition at least -70%? input: `Cc1ccc(NC(=O)COc2nc(C)cs2)cc1`
Return: criterion met

* * *

MEASURED_ON: Muscarinic acetylcholine receptor M4 (Homo sapiens) (UniProt P08173)
Sequence (P08173 whole entry, looked up): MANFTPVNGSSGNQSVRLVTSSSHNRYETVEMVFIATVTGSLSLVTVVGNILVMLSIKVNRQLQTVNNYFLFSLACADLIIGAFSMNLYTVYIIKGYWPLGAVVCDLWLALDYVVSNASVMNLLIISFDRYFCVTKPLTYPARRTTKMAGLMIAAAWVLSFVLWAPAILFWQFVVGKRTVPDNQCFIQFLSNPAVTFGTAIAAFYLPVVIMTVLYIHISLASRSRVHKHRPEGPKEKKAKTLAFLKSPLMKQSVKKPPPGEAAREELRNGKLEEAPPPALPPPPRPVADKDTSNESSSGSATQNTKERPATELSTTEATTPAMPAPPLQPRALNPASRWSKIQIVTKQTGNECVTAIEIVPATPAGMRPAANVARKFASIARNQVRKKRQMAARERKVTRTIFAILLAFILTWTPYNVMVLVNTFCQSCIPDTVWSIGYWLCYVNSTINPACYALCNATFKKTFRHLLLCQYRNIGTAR
TEST_NAME: M4-linked GIRK flux change, two-sided – cell-based, HEK293 M4/GIRK, thallium flux, BTC-AM, M4 allosteric agonist project, primary screen (AID 625);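 also: thallium influx through GIRK channels coupled to M4 in HEK293 cells with BTC-AM dye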
PARTICULARS: at 10 µM, actives lie on both sides
METRIC: fluorescence slope
Numbers only.

{"columns": ["RECORD_SMILES", "fluorescence slope"],
 "data": [
  ["Cc1ccc(Cl)cc1NC(=O)CSc1nnc(C)n1-c1ccccc1", 0.00502]
]}

For every record below, what is its fluorescence slope?
1. CCOC(=O)c1c(NCc2ccc3c(c2)OCO3)c2ccccc2[nH]c1=O
2. Cc1nc(-c2ccc(NC(=O)c3cccs3)cc2)cs1
3. Cc1[nH]nc2c1C1(CCN(C(=O)c3ccccc3)CC1)C(C#N)=C(N)O2

Return:
0.00507
0.005
0.00593

Enquiry: Read off the recorded fluorescence slope for `Cc1c(NS(=O)(=O)c2ccc3c(c2)c(=O)n(C)c(=O)n3C)c(=O)n(-c2ccccc2)n1C`
Return: 0.00512

* * *

TEST_NAME: endothelial E-selectin expression blockers – imaging, HUVEC, immunofluorescence, MLSMR starter and 10KST1 sets, primary screen (AID 487);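 also: signal is fraction of cell area covered by stained E-selectin grains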
PARTICULARS: HUVEC TNFalpha-induced E-selectin immunofluorescence imaging, at 2 µM; active compounds read high
Give condition met when the value for inhibition is at least -20%. Give condition not met when it is less.

Use the examples below as a reference point.
{"columns": ["COMPOUND", "DISCRETE_LABEL"],
 "data": [
  ["O=C(Nc1cc(C(F)(F)F)ccc1Cl)c1cc(C2CC2)on1", "condition not met"],
  ["NC(=O)c1c(NC(=O)Cc2cccs2)sc2c1CCC2", "condition not met"],
  ["O=c1c2[nH]c3ccc(Cl)cc3c2ncn1Cc1ccccn1", "condition not met"],
  ["CCOc1ccccc1Nc1nnc(SCC(=O)N2CCCC2)s1", "condition not met"],
  ["CC1CCc2c(sc3c2C2=NS(=O)(=O)CCN2C=N3)C1 (stereo not given)", "condition met"]
]}

Enquiry: // inclusive: inhibition at least -20%? input: `COc1ccccc1OCc1ccc(C(=O)Nc2ccncc2)o1`
Return: condition not met

Enquiry: // inclusive: inhibition at least -20%? input: `Cc1cc(C)nc(-n2nc(C)cc2NC(=O)c2ccc(Br)o2)n1`
Return: condition met

* * *

MEASURED_ON: Voltage-gated potassium channel subunit beta-2 (Rattus norvegicus)
TEST_NAME: enhancers of rat Kvbeta2 NADPH turnover – biochemical, NADPH fluorescence, primary screen (AID 623);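 also: fluorescence intensity change per second fitted from 20 to 320 s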
PARTICULARS: Recombinant KvBeta, NADPH fluorescence decrease slope, 10 min; at 10 µM; active compounds read low
METRIC: NADPH fluorescence slope
Numbers only.

{"columns": ["MOLECULE", "NADPH fluorescence slope"],
 "data": [
  ["Cc1cc(S(=O)(=O)N(Cc2ccccc2)Cc2ccc(N(C)C)cc2)ccc1-n1cnnn1", "-5.5e-05"],
  ["Cc1cccc(C)c1OCc1nnc2c3cnn(C)c3ncn12", -0.000169],
  ["O=C(NS(=O)(=O)c1ccc(NC(=O)C2CCCO2)cc1)c1ccccc1 (centres undefined)", "-5.2e-05"]
]}

Enquiry: Read off the recorded NADPH fluorescence slope for `CCn1c(SCC(=O)Nc2cc(C)on2)nc2sc3c(c2c1=O)CCCC3`
Return: 1.4e-06

* * *

TEST_NAME: TLR3 IRF3 reporter activation blockers – cell-based, poly I:C stimulus, luciferase, 10K MLSCN set, primary screen (AID 602277)
PARTICULARS: HEK293-TLR3 RL24 IRF3 luciferase reporter, at 10 µM, active compounds read high
METRIC: inhibition (%)
One number for each entry, in %.

For every record below, what is its inhibition?
1. Cc1ccc(Cn2c(SCC(N)=O)nc3c2c(=O)n(C)c(=O)n3C)cc1
2. CCCCn1c(SCC(=O)Nc2ccc(OC)cc2)nc2ccc(N3CCOCC3)cc2c1=O

Return:
1. 2.84
2. 13.1

For every record below, what is its inhibition?
1. Cc1cc2c(c(=O)o1)C(C13C=CC(CC1)C3)C(C#N)=C(N)O2 (configuration not stated)
2. C=CCn1c(SCc2cc(=O)n3ccsc3n2)nnc1C1CCCCC1
3. O=C(NCCSc1c[nH]c2ccccc12)c1ccco1

Return:
1. 13.6
2. 21.1
3. 32.9
